Below, each entry is listed alongside its reported inhibition.
assayed_system: Virion infectivity factor (Human immunodeficiency virus type 1 group M subtype B (isolate BH10)) + Virion infectivity factor (Human immunodeficiency virus type 1 group M subtype B (isolate BRU/LAI)) + Virion infectivity factor (Human immunodeficiency virus type 1 group M subtype B (isolate PCV12)) + Virion infectivity factor (Human immunodeficiency virus type 1 group M subtype B (isolate HXB2)) + DNA dC->dU-editing enzyme APOBEC-3G (Homo sapiens) (UniProt P69720+P69721+P69722+P69723+Q9HC16)
method: inhibitors of Vif binding to APOBEC3G peptide, primary screen, biochemical, TR-FRET, GST-Vif 1-94, biotin-A3G peptide, dose response retest (AID 1117319);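 further: Vif residues 1-94 fused to GST binding biotinylated APOBEC3G peptide 110-148; 0% = full assay without inhibitor and 100% = GST in place of GST-Vif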
measurement_parameters: active compounds read high
Among all 260,000 compounds or so, about 1,500 (0.58%) were called active. Roughly 5% stayed inconclusive and do not appear here. Not all results are given here. Entries with a potency or affinity are not part of this list.
# number only, unit % dropped from output

Look up inhibition for this compound: CC(C)n1nnnc1SCC(=O)NCc1ccco1 20

Look up inhibition for this compound: COc1cc(/C=C/C(=O)OCC(=O)Nc2ccc3c(c2)OCCO3)ccc1OCC#N -0.31

Look up inhibition for this compound: COc1ccc(N2CCN(c3ccc(C(N)=O)cc3[N+](=O)[O-])CC2)cc1 -3.87

Look up inhibition for this compound: Cc1cccc(NC(=O)CNC(=O)c2ccc3nc[nH]c3c2)c1C 9.97

Look up inhibition for this compound: CCn1nnnc1SCC(=O)NCc1ccco1 21.2

* * *

assayed_system: Virion infectivity factor (Human immunodeficiency virus type 1 group M subtype B (isolate BH10)) + Virion infectivity factor (Human immunodeficiency virus type 1 group M subtype B (isolate BRU/LAI)) + Virion infectivity factor (Human immunodeficiency virus type 1 group M subtype B (isolate PCV12)) + Virion infectivity factor (Human immunodeficiency virus type 1 group M subtype B (isolate HXB2)) + DNA dC->dU-editing enzyme APOBEC-3G (Homo sapiens) (UniProt P69720+P69721+P69722+P69723+Q9HC16)
method: inhibitors of Vif binding to APOBEC3G peptide, primary screen, biochemical, TR-FRET, GST-Vif 1-94, biotin-A3G peptide, dose response retest (AID 1117319)
measurement_parameters: active compounds read high
The campaign covered roughly 260,000 compounds. About 1,500 (0.58%) were called active. Inconclusive results (about 5%) are left out. Only a sample is shown. Potency and affinity values are given separately.
Below, each entry is listed alongside its reported inhibition.
# number only, unit % dropped from output

Look up inhibition for this molecule: O=C1C2CC=CCC2C(=O)N1c1ncn[nH]1 (stereo not drawn) 0.84

Look up inhibition for this molecule: Nc1nc2cc(S(=O)(=O)N3CCOCC3)ccc2o1 -2.39

Look up inhibition for this molecule: C[C@@H]1CCC[C@H](C)N1Cc1nc(Cc2ccccc2Cl)no1 -1.65

Look up inhibition for this molecule: Cc1cccc(Nc2nc(N)c([N+](=O)[O-])c(N3CC(C)OC(C)C3)n2)c1 (stereo not drawn) -1.71

Look up inhibition for this molecule: CCCOC(=O)c1ccc(NC(=O)c2ccccc2[N+](=O)[O-])cc1 -4.31

* * *

Below, each entry is listed alongside its reported inhibition.
assayed_system: Virion infectivity factor (Human immunodeficiency virus type 1 group M subtype B (isolate BH10)) + Virion infectivity factor (Human immunodeficiency virus type 1 group M subtype B (isolate BRU/LAI)) + Virion infectivity factor (Human immunodeficiency virus type 1 group M subtype B (isolate PCV12)) + Virion infectivity factor (Human immunodeficiency virus type 1 group M subtype B (isolate HXB2)) + DNA dC->dU-editing enzyme APOBEC-3G (Homo sapiens) (UniProt P69720+P69721+P69722+P69723+Q9HC16)
method: inhibitors of Vif binding to APOBEC3G peptide, primary screen, biochemical, TR-FRET, GST-Vif 1-94, biotin-A3G peptide, dose response retest (AID 1117319);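 further: Vif residues 1-94 fused to GST binding biotinylated APOBEC3G peptide 110-148; 0% = full assay without inhibitor and 100% = GST in place of GST-Vif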
measurement_parameters: active compounds read high
Out of some 260,000 compounds screened, about 1,500 (0.58%) were called active. About 5% were inconclusive and are not listed. Not all results are given here. Entries with a potency or affinity are not part of this list.
# number only, unit % dropped from output

Below are worked cases with known answers.
[
  {
    "compound": "Cc1cc(N/N=C/c2cccc(F)c2)nc(NCc2ccccc2)n1",
    "units": "%",
    "inhibition": 4.51
  },
  {
    "compound": "Cc1ccc(NC(=O)CSc2nnc(CNC(=O)c3ccco3)n2C)cc1C",
    "units": "%",
    "inhibition": -4.15
  },
  {
    "compound": "CCOc1ccc(OCCn2ccnc2)cc1",
    "units": "%",
    "inhibition": -0.21
  },
  {
    "compound": "COC1=CC(=O)C(OC)=C(OC)C1=O",
    "units": "%",
    "inhibition": 5.9
  },
  {
    "compound": "Cc1ccc(-c2cc(C(F)(F)F)n3nc(C(=O)Nc4ccon4)cc3n2)cc1C",
    "units": "%",
    "inhibition": 10.8
  }
]

Look up inhibition for this compound: Cc1ccc(-c2c(C(=O)Nc3ccccc3C)c(C)[nH]c(=S)c2C#N)o1 17.8

Look up inhibition for this compound: Cc1ccccc1NC(=O)c1c(C)[nH]c(=S)c(C#N)c1-c1ccc(Cl)cc1 -0.84

Look up inhibition for this compound: O=C(CCSc1ccc(Cl)cc1)c1ccco1 2.25

Look up inhibition for this compound: O=C(CNC(=O)c1cccc(Cl)c1)NCC(c1cccs1)N1CCOCC1 (stereo unspecified) -8.67

Look up inhibition for this compound: Oc1ccc(N=Nc2ccccc2C(F)(F)F)c2cccnc12 9.97

Look up inhibition for this compound: CC(C)OC(=O)C1C(=O)CC(C)(O)C(C(=O)OC(C)C)C1c1ccccc1 (stereo unspecified) -5.49

* * *

Below, each entry is listed alongside its reported inhibition.
assayed_system: Virion infectivity factor (Human immunodeficiency virus type 1 group M subtype B (isolate BH10)) + Virion infectivity factor (Human immunodeficiency virus type 1 group M subtype B (isolate BRU/LAI)) + Virion infectivity factor (Human immunodeficiency virus type 1 group M subtype B (isolate PCV12)) + Virion infectivity factor (Human immunodeficiency virus type 1 group M subtype B (isolate HXB2)) + DNA dC->dU-editing enzyme APOBEC-3G (Homo sapiens) (UniProt P69720+P69721+P69722+P69723+Q9HC16)
method: inhibitors of Vif binding to APOBEC3G peptide, primary screen, biochemical, TR-FRET, GST-Vif 1-94, biotin-A3G peptide, dose response retest (AID 1117319);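 further: Vif residues 1-94 fused to GST binding biotinylated APOBEC3G peptide 110-148; 0% = full assay without inhibitor and 100% = GST in place of GST-Vif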
measurement_parameters: active compounds read high
Screen size: about 260,000 compounds; about 1,500 (0.58%) were called active. Another 5% or so got no clear call; they are omitted. Not all results are given here. Entries with a potency or affinity are not part of this list.
# number only, unit % dropped from output

Below are worked cases with known answers.
[
  {
    "compound": "Cc1oc(-c2cccc(Cl)c2)nc1CN1CCC(C(=O)N2CCN(c3ccccn3)CC2)CC1",
    "inhibition (%)": 6.2
  },
  {
    "compound": "CC(C)NS(=O)(=O)c1ccc(OCC(=O)NCCC2=CCCCC2)cc1",
    "inhibition (%)": 2.83
  },
  {
    "compound": "Cc1ccc(-n2nc3c(c2NC(=O)c2ccccc2Br)CS(=O)C3)cc1 (stereo not given)",
    "inhibition (%)": 0.72
  },
  {
    "compound": "COc1ccc(CCNC(=O)COc2ccc(S(=O)(=O)N3CCCC3)cc2)cc1",
    "inhibition (%)": -4.34
  }
]

Next compound, please.
Look up inhibition for this compound: CCc1ccc(-c2nc(CN3CCC(C(=O)N4CCN(c5ccccn5)CC4)CC3)c(C)o2)cc1 -7.35

* * *

Below, each entry is listed alongside its reported inhibition.
assayed_system: Virion infectivity factor (Human immunodeficiency virus type 1 group M subtype B (isolate BH10)) + Virion infectivity factor (Human immunodeficiency virus type 1 group M subtype B (isolate BRU/LAI)) + Virion infectivity factor (Human immunodeficiency virus type 1 group M subtype B (isolate PCV12)) + Virion infectivity factor (Human immunodeficiency virus type 1 group M subtype B (isolate HXB2)) + DNA dC->dU-editing enzyme APOBEC-3G (Homo sapiens) (UniProt P69720+P69721+P69722+P69723+Q9HC16)
method: inhibitors of Vif binding to APOBEC3G peptide, primary screen, biochemical, TR-FRET, GST-Vif 1-94, biotin-A3G peptide, dose response retest (AID 1117319);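 further: Vif residues 1-94 fused to GST binding biotinylated APOBEC3G peptide 110-148; 0% = full assay without inhibitor and 100% = GST in place of GST-Vif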
measurement_parameters: active compounds read high
Hit rate of the full screen: of about 260,000 compounds, about 1,500 (0.58%) were called active. Another 5% or so got no clear call; they are omitted. These entries were drawn from the full list. Results with a measured potency or affinity are listed apart.
# number only, unit % dropped from output

Below are worked cases with known answers.
[
  {
    "compound": "COc1cccc(CNC(=O)CCS(=O)(=O)c2cccs2)c1",
    "inhibition [%]": -7.15
  },
  {
    "compound": "CC1(C)CC2(CC(c3ccccc3)c3ccc(O)cc3O2)NC(=S)N1 (stereo unspecified)",
    "inhibition [%]": 0.62
  },
  {
    "compound": "COc1cc(C=C2C(=O)c3ccccc3C2=O)ccc1O",
    "inhibition [%]": -0.66
  },
  {
    "compound": "CCOCC(=O)OCC(=O)Nc1cc(OC)c([N+](=O)[O-])cc1C",
    "inhibition [%]": 7.7
  },
  {
    "compound": "O=C(Nc1ccc2c(c1)OCCO2)c1ccc(Cl)cc1",
    "inhibition [%]": -3.98
  },
  {
    "compound": "CC(C)C(NC(=O)/C(=C/c1ccco1)NC(=O)c1ccc(Br)o1)C(=O)O (stereo unspecified)",
    "inhibition [%]": 25.7
  },
  {
    "compound": "O=C(NC(=S)Nc1ccccc1O)c1cccnc1",
    "inhibition [%]": -2.04
  },
  {
    "compound": "COC(=O)c1ccc(CNC(=O)Cn2nnnc2CN(C)C(C)C)cc1",
    "inhibition [%]": -4.98
  }
]

Look up inhibition for this compound: CN1C(=O)[C@H]2[C@@H](c3ccc(C(F)(F)F)cc3)N[C@]3(CCCN(CC4CCCCC4)C3=O)[C@H]2C1=O 2.73

Look up inhibition for this compound: COc1ccccc1-n1c(CNC(=O)c2ccco2)nnc1SCC(=O)Nc1ccc(F)cc1 -4.03

Look up inhibition for this compound: CCS(=O)(=O)N1CCC(C(=O)NC2CCCCCCC2)CC1 1.17

Look up inhibition for this compound: COc1ccccc1-n1cnc2cc(NCc3ccccc3O)ccc21 5.69

Look up inhibition for this compound: CCc1ccc(-n2c(O)c(C=NCCN(CC)CC)c(=O)[nH]c2=O)cc1 1.67

Look up inhibition for this compound: CCCC(=O)Nc1nnc(Sc2ccc(N(C)C)cc2)s1 2.88
